Reference source: ChEMBL document CHEMBL4396868

biological target: UniProt Q9UM73; type: cell-based, HEK293
Description: Inhibition of recombinant human ALK expressed in HEK293 cells assessed as reduction in ALK autophosphorylation at Tyr1604 residue incubated for 60 mins by sandwich ELISA
pIC50: −log10 of the molar value.
readout kind: pIC50

Cc1cc(-n2cc(S(C)(=O)=O)c3ccc(N[C@@H](C)c4ccc(F)cn4)nc32)n[nH]1: 7.89
Cc1cc(-n2cc(C(=O)N3CCN(C)CC3)c3ccc(N[C@@H](C)c4ccc(F)cn4)nc32)[nH]n1: 7.43
Cc1cc(-n2cc(S(=O)(=O)C(C)C)c3ccc(N[C@@H](C)c4ccc(F)cn4)nc32)n[nH]1: 6.57

P: Cc1cc(-n2cc(C(=O)N(C)C)c3ccc(N[C@@H](C)c4ccc(F)cn4)nc32)[nH]n1
Q: Cc1cc(-n2cc(S(C)(=O)=O)c3ccc(N[C@@H](C)c4ccc(F)cc4F)nc32)n[nH]1
### Prompt Higher pIC50: P or Q ? Please respond with the label that marks your chosen entry.
### Response P
(P: 7.80, Q: 7.57)

----------
assay: Drug level in Jcl-ICR mouse brain at 100 mg/kg, ip measured at 2 hr by LC/MS/MS analysis; format: ADME, organism-based; details: read-out: Drug uptake
readout kind: concentration at 2 h (ng/mL)
Kindly provide the numeric value in ng/mL only, without the unit symbol.

### Prompt Could you tell me which concentration at 2 h is on file for "Cc1cc(-n2cc(C(=O)N3CCO[C@@H](C)C3)c3ccc(O[C@@H](C)c4ccc(F)cn4)nc32)n[nH]1" ?
### Response 10300

----------
target: Focal adhesion kinase 1 (Homo sapiens)
Sequence (Q05397 whole entry): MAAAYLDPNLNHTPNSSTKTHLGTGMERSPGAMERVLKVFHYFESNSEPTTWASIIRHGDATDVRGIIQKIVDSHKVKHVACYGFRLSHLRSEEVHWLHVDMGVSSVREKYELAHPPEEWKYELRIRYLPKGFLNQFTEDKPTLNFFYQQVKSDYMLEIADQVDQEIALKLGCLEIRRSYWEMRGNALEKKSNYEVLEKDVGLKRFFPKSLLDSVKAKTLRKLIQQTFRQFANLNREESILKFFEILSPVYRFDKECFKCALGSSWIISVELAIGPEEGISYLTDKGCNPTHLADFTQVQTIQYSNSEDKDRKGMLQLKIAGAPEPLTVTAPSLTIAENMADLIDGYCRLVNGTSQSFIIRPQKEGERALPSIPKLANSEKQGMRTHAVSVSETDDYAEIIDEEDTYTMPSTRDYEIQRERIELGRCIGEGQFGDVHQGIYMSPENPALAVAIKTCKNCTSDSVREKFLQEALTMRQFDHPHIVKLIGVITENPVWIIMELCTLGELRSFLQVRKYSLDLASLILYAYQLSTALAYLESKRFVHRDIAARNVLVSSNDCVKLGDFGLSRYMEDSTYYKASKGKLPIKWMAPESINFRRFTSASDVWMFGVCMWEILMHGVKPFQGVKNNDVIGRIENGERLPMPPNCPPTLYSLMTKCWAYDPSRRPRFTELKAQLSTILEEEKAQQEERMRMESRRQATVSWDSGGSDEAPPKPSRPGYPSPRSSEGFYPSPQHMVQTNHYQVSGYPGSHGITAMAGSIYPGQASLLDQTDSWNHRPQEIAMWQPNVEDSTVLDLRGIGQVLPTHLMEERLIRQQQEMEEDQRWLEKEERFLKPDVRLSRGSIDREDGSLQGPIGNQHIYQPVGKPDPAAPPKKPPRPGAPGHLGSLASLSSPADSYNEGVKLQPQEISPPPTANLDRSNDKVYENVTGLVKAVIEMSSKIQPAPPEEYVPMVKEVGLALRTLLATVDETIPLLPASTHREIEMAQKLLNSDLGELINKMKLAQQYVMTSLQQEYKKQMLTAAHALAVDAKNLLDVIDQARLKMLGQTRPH
readout kind: pIC50
Keep in mind that pIC50 stands for -log10 of concentration in molar terms.

### Prompt Could you tell me which pIC50 is on file for "Cc1cc(-n2cc(C(=O)N3CCO[C@@H](C)C3)c3ccc(O[C@@H](C)c4ccc(F)cn4)nc32)n[nH]1" ?
### Response 7.60

----------
pIC50: −log10 of the molar value.
# pIC50 measurements, system: ALK tyrosine kinase receptor (Homo sapiens)
readout kind: pIC50

Cc1cc(-n2cc(C3=CCOCC3)c3ccc(N[C@@H](C)c4ccc(F)cn4)nc32)[nH]n1: 8.72
Cc1cc(-n2cc(S(C)(=O)=O)c3ccc(N[C@@H](C)c4ccc(F)cn4)nc32)n[nH]1: 8.48
Cc1cc(-n2cc(S(=O)(=O)C3COC3)c3ccc(N[C@@H](C)c4ccc(F)cn4)nc32)n[nH]1: 7.70
Cc1cc(-c2cnc3ccc(N[C@H](C)c4ccc(F)cc4F)nn23)[nH]n1: 6.00
COCc1cn(-c2cc(C)n[nH]2)c2nc(OC(C)c3ccc(F)cn3)ccc12 (racemic; 16): 5.55

A: Cc1cc(-c2cnc3ccc(N[C@@H](C)c4ccc(F)cc4F)nn23)[nH]n1
B: Cc1cc(-n2cc(C(=O)N3CCO[C@H](C)C3)c3ccc(O[C@H](C)c4ccc(F)cn4)nc32)[nH]n1 (relative stereo)
### Prompt # min-compare on pIC50 between A and B Please respond with the label that marks your chosen entry.
### Response B
(B: 8.34, A: 8.70)

----------
molecular target: ALK tyrosine kinase receptor (Homo sapiens, UniProt Q9UM73); assay type: cell-based, HEK293
Sequence (Q9UM73 whole entry): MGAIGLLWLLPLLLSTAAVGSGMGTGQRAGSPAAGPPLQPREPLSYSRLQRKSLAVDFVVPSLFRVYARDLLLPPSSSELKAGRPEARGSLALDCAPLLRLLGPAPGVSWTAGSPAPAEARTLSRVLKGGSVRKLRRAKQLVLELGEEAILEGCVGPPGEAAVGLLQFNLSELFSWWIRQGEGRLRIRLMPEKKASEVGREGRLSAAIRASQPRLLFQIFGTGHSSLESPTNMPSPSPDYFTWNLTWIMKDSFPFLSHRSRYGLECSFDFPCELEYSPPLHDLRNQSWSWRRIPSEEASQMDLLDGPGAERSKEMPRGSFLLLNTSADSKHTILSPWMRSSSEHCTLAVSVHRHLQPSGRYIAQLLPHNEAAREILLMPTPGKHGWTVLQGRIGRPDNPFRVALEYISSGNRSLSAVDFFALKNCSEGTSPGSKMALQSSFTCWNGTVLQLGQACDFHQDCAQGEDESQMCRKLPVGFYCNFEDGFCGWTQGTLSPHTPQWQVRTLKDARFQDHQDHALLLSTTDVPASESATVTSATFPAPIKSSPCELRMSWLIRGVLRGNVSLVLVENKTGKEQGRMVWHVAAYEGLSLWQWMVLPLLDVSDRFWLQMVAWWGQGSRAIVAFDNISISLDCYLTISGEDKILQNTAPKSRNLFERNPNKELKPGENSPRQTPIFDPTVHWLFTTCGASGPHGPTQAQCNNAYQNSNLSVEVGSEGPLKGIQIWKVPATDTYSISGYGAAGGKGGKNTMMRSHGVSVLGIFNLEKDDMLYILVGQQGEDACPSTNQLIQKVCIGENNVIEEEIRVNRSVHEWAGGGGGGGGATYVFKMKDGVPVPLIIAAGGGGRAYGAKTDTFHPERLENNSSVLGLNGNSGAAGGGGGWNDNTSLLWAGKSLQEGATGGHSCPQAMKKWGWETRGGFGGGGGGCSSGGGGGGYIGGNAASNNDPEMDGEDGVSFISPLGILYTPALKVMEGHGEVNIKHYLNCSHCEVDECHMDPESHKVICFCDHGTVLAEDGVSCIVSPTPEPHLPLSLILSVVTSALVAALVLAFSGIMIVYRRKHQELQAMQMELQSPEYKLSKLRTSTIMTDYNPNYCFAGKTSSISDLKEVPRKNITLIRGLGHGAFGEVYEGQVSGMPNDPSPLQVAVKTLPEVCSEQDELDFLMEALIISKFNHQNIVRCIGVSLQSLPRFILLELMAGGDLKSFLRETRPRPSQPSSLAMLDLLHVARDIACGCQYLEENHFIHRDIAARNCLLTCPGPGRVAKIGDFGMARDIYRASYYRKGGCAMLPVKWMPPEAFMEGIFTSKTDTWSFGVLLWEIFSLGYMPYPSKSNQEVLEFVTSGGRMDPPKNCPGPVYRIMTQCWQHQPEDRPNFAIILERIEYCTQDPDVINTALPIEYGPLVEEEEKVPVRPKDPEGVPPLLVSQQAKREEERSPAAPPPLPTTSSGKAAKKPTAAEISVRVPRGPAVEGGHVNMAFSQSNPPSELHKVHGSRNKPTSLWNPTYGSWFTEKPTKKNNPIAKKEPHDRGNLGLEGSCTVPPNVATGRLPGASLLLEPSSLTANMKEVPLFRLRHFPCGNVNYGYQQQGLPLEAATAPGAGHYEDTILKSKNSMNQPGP
readout kind: IC50 (nM)

Before answering, review these 2 worked examples.
Cc1cc(-n2cc(C3=CCOCC3)c3ccc(N[C@@H](C)c4ccc(F)cn4)nc32)[nH]n1: 9.4
Cc1cc(-c2cnc3ccc(N[C@@H](C)c4ccc(F)cc4F)nn23)[nH]n1: 6

a: Cc1cc(-n2cc(C(=O)N3CCO[C@@H](C)C3)c3ccc(O[C@@H](C)c4ccc(F)cn4)nc32)n[nH]1
b: Cc1cc(-n2ccc3ccc(N[C@@H](C)c4ccc(F)cc4F)nc32)[nH]n1
### Prompt # min-compare on IC50 between a and b Please respond with the label that marks your chosen entry.
### Response a
(a: 27 nM, b: 140 nM)

P: Cc1cc(-n2cc(S(=O)(=O)C3COC3)c3ccc(N[C@@H](C)c4ccc(F)cn4)nc32)n[nH]1
Q: CCS(=O)(=O)c1cn(-c2cc(C)[nH]n2)c2nc(N[C@@H](C)c3ccc(F)cn3)ccc12
### Prompt Higher IC50: P or Q ? Please respond with the label that marks your chosen entry.
### Response P
(P: 60 nM, Q: 37 nM)

1: Cc1cc(-n2cc(C(=O)N3CCOCC3)c3ccc(OC(C)c4ccc(F)cn4)nc32)[nH]n1 (racemic)
2: Cc1cc(-n2cc(C(=O)N3CCO[C@H](C)C3)c3ccc(O[C@H](C)c4ccc(F)cn4)nc32)[nH]n1 (relative stereo)
### Prompt # min-compare on IC50 between 1 and 2 Please respond with the label that marks your chosen entry.
### Response 2
(2: 42 nM, 1: 69 nM)
